TEST_SYSTEM: Bcl-xL-Beclin 1 complex (Homo sapiens)
Construct: made in house
Sequence (Q07817 whole entry, one chain of several): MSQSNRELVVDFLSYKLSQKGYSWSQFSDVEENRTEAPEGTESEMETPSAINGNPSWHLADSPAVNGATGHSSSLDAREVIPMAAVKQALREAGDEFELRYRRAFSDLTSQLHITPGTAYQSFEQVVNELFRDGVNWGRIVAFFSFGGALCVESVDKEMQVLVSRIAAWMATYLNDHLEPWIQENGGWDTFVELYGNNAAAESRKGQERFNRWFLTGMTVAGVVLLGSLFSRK
EXPERIMENT_NOTES: Concentration response FP reconfirmation of HTS hits
Assay type: binding
MEASUREMENT_CONDITIONS: 40 μM; hits of first screen
Catalogue of compounds with associated Dose-response (% Inhibition) 40 μM
Expressed in %, but write only the number.

>>> assay_value("CCN(CC)CCNC(=O)COc1ccc(OC)cc1.Cl [Compound A32, MEFEXAMIDE HYDROCHLORIDE]")
11.2
>>> assay_value("CCCCCCCCCCCCCCCCC(C(=O)O)C(O)(CC(=O)O)C(=O)O (stereo not shown)")
12.7
>>> assay_value("C[n+]1c2cc(N)ccc2cc2ccc(N)cc21.[Cl-] [Compound A26, ACRIFLAVINIUM HYDROCHLORIDE]")
102.5

Now for another entry.
I'm curious: which Dose-response (% Inhibition) 40 μM was measured for CC[N+](C)(CC)CCC[n+]1c(-c2ccccc2)c2cc(N)ccc2c2ccc(N)cc21.[I-].[I-] [Compound A40, PROPIDIUM IODIDE] tested on Bcl-xL-Beclin 1 complex (Homo sapiens)? 4.4

* * *

TEST_SYSTEM: Bcl-xL-Beclin 1 complex (Homo sapiens)
Construct: made in house
EXPERIMENT_NOTES: Concentration response FP reconfirmation of HTS hits
Format: binding
MEASUREMENT_CONDITIONS: 80 μM; hits of first screen; read-out: Dose-response (% Inhibition) 80 μM
Counter-ions that a name gives are not always drawn.
PROPERTY: inhibition at 80 µM (%)
Expressed in %, but write only the number.

>>> assay_value("COC(=O)Nc1nc2ccc(Sc3ccccc3)cc2[nH]1")
-0.4
>>> assay_value("O=C(O)C1=CC(=C(c2ccc(O)c(C(=O)O)c2)c2ccc(O)c(C(=O)O)c2)C=CC1=O")
8.1
>>> assay_value("O=C(O)c1cc(O)c2c(c1)[C@@H]([C@H]1c3cc(C(=O)O)cc(O)c3C(=O)c3c(O[C@@H]4O[C@H](CO)[C@@H](O)[C@H](O)[C@H]4O)cccc31)c1cccc(O[C@@H]3O[C@H](CO)[C@@H](O)[C@H](O)[C@H]3O)c1C2=O [Compound A35, SENNOSIDE B]")
21.1
>>> assay_value("O=C(O)c1cc(O)c2c(c1)[C@H]([C@H]1c3cc(C(=O)O)cc(O)c3C(=O)c3c(O[C@@H]4O[C@H](CO)[C@@H](O)[C@H](O)[C@H]4O)cccc31)c1cccc(O[C@@H]3O[C@H](CO)[C@@H](O)[C@H](O)[C@H]3O)c1C2=O [Compound A34, SENNOSIDE A]")
22.5
>>> assay_value("OCCN(CCO)c1nc(N2CCCCC2)c2nc(N(CCO)CCO)nc(N3CCCCC3)c2n1")
62.9

Requested read-out: inhibition at 80 µM. Entry: CCCCCc1c2c(cc(O)c1C(=O)O)OC(=O)c1c(cc(OC)cc1C(=O)CCCC)O2 10.2

Same thing, different compound: CCN(CC)CCCC(C)Nc1c2ccc(Cl)cc2nc2ccc(OC)cc12 (stereo not shown) [Compound A21, QUINACRINE HYDROCHLORIDE] 58.3

Same thing, different compound: O=C1c2cccc(O)c2C(=O)c2c(O)cccc21 8.7

Same thing, different compound: Nc1ccc2cc3ccc(N)cc3nc2c1 [Compound A13, PROFLAVINE HEMISULFATE] 102

Same thing, different compound: O=C1C=C2CC3(O)COc4cc(O)ccc4C3=C2C=C1O (stereo not shown) 57.8

Same thing, different compound: CC[C@@]1(O)C(=O)OCc2c1cc1n(c2=O)Cc2cc3c(CN(C)C)c(O)ccc3nc2-1 [Compound A23, TOPOTECAN HYDROCHLORIDE] 102

Same thing, different compound: CCCCC(CC)CCC(CC(C)C)OS(=O)(=O)O (stereo not shown) [Compound A06, SODIUM TETRADECYL SULFATE] 15.4

Same thing, different compound: CCc1oc2ccccc2c1C(=O)c1cc(Br)c(O)c(Br)c1 6.1
